Hey, just so you know, these numbers are from paper PMC3627579.

Biological target: T1, TRBP-D1 (Homo sapiens, UniProt Q15633 19-99)
T1 sequence: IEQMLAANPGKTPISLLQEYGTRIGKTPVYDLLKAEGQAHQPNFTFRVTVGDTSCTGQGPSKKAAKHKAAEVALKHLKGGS
Assay: ITC
Reported Metric: pKd
A value of pKd is the negative decimal logarithm of a concentration given in moles per litre.

Entry pre-miR-155 (structured_RNA) RNA: GGAAUGCUAAUCGUGAUAGGGGUUUUUGCCUCCAACUGACUCCUACAUAUUAGCAUUCCCA ; pKd = 4.81
